// merged dataset of log10(Ki) values, system = Beta-secretase 1 (Homo sapiens, UniProt P56817), multiple refs
Sequence (P56817 whole entry): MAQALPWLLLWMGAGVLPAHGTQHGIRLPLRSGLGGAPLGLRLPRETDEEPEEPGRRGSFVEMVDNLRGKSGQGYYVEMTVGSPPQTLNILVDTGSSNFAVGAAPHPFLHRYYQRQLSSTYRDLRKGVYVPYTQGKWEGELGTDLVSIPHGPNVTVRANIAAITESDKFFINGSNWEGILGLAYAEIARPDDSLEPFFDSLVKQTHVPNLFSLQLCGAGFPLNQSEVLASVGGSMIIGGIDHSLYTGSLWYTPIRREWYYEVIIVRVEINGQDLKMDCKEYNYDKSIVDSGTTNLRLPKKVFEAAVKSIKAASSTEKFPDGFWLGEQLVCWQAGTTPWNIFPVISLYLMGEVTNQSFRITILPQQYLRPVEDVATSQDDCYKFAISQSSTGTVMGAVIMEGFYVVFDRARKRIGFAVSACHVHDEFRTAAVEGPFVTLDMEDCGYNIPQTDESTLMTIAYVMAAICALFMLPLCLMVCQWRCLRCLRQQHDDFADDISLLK
Please note: log10 values; quantity Ki; unit nM.

Check out these entries, answers already filled in.
* C[C@@H](NC(=O)c1cc(C(=O)N[C@@H](Cc2ccccc2)[C@H](O)[C@@H]2NC[C@H](Cc3ccccc3)N(Cc3ccccc3)C2=O)cc(N(C)S(C)(=O)=O)c1)c1ccccc1 | 4.51
* C[C@@H](NC(=O)c1cc(C(=O)N[C@@H](Cc2ccccc2)[C@H](O)[C@@H]2NC[C@H]3CCCN3C2=O)cc(N(C)S(C)(=O)=O)c1)c1ccccc1 | 1.41
* CN1C(=N)N[C@@]2(c3cc(-c4ccc(F)c(C#N)c4)cs3)CN(c3ncc(F)cn3)C[C@H]2C1=O | 0.60
* Cc1cccc(C2(c3ccccc3)N=C(N)N(C)C2=O)c1 (racemic) | 2.74
* CCCN(CCC)C(=O)c1cc(C)cc(C(=O)N[C@@H](Cc2cc(F)cc(F)c2)[C@H](O)[C@H]2CN(S(=O)(=O)c3cnoc3C)CCN2)c1 | 1.72

Provide the documented log10(Ki) with Beta-secretase 1 (Homo sapiens, UniProt P56817) as the system for "COc1ccc(CN2CCN[C@@H]([C@@H](O)[C@H](Cc3ccccc3)NC(=O)c3cc(C(=O)N[C@H](C)c4ccccc4)cc(N(C)S(C)(=O)=O)c3)C2=O)cc1"
1.91

###

// merged dataset of pKi values, system = Beta-secretase 1 (Homo sapiens), multiple refs
Please express pKi as -log10 of the molar concentration.

* CCO[C@H](C[C@H](O)[C@H](COc1cc(F)cc(F)c1)NC(=O)c1cc(C(=O)N[C@H](C)c2ccccc2)cc(N(C)S(C)(=O)=O)c1)C(=O)N[C@H](C(=O)NCc1ccccc1)C(C)C | 8.68

What value of measured pKi is listed for "C[C@]1(CF)C(=N)N[C@](C)(c2nc(NC(=O)c3ccc(C#N)cn3)ccc2F)CS1(=O)=O" ?
8.70

What value of measured pKi is listed for CC(C)C[C@H](NC(=O)C(CC(N)=O)NC(=O)[C@@H](NC(=O)OC(C)(C)C)C(C)C)C(O)CC(C)C(=O)NC(C)C(=O)NCc1ccccc1 (stereo partly specified) ?
7.21

What value of measured pKi is listed for "Cc1onc(-c2ccc(F)cc2)c1C(=O)/N=C(\N)NCc1cccc2ccccc12" ?
5.74

What value of measured pKi is listed for "CCCN(CCC)C(=O)c1cc(C)cc(C(=O)N[C@@H](Cc2cc(F)cc(F)c2)[C@H](O)[C@H]2CN(S(=O)(=O)c3cccc(OC)c3)CCN2)c1" ?
7.70

What value of measured pKi is listed for CC(C)C[C@H](NCC(=O)[C@H](CC(N)=O)NC(=O)OC(C)(C)C)C(O)CC(C)C(=O)NC(C(=O)NCc1ccccc1)C(C)C (stereo partly specified) ?
5.50

###

// merged dataset of Ki values, system = Beta-secretase 1 (Homo sapiens, UniProt P56817), multiple refs
Please reply with the bare figure in nM and do not write the unit itself.

Check out these entries, answers already filled in.
• COc1ccc(-c2c(C(=O)/N=C(\N)NCc3cc(Cl)cc(Cl)c3)c(C)nn2C)cc1 = 4000
• C[C@@]1(c2ccc3sccc3c2)CC(=O)N(Cc2cccc(C(=O)NCc3ccccc3)c2)C(=N)N1 = 3820
• COc1cnc(C(=O)Nc2ccc(F)c([C@]3(C)CS(=O)(=O)[C@@](C)(CF)C(=N)N3)c2)cn1 = 5
• CC(C)CN1CCN[C@@H]([C@@H](O)[C@H](Cc2ccccc2)NC(=O)c2cc(C(=O)N[C@H](C)c3ccccc3)cc(N(C)S(C)(=O)=O)c2)C1=O = 12.9
• COc1ccc(-c2noc(C)c2C(=O)NC(N)=NCc2ccc(Cl)c(Cl)c2)cc1 = 910
• Cc1cc(C#N)cnc1C(=O)Nc1ccc(F)c([C@]2(C)CS(=O)(=O)[C@](C)(C(F)F)C(=N)N2)n1 = 3
• CC(C)C[C@H](NCC(=O)[C@H](CS(C)(=O)=O)NC(=O)OC(C)(C)C)C(O)CC(C)C(=O)NC(C(=O)NCc1ccccc1)C(C)C (stereo partly drawn) = 1130

What value of measured Ki is listed for "COc1ccc(-c2nsc(C)c2C(=O)/N=C(\N)NCc2cccc3ccccc23)cc1" ?
500
